- Tested on: ddy strain of male mice
- assay_details: Acute toxicity (oral, mice, 7 days observation)
- Type: in vivo
- recorded_conditions: 1000 mg/kg oral
Below: a set of entries, each annotated with reported Acute toxicity: death number of mice/number of mice tested.
parameter_measured: Acute toxicity: death number of mice/number of mice tested

[
  {
    "smiles_representation": "COc1ccc(NC(=O)N(C)C(=O)N(C)C)cc1OC",
    "measured_target": "ddy strain of male mice",
    "obs_value": "0/4"
  },
  {
    "smiles_representation": "CCN(C(=O)Nc1ccccc1)C(=O)N(C)C",
    "measured_target": "ddy strain of male mice",
    "obs_value": "0/4"
  },
  {
    "smiles_representation": "Cc1c(Cl)cccc1NC(=O)N(C)C(=O)N(C)C",
    "measured_target": "ddy strain of male mice",
    "obs_value": "1/4"
  },
  {
    "smiles_representation": "CNC(=O)N(C)C(=O)N(c1ccccc1)c1ccccc1",
    "measured_target": "ddy strain of male mice",
    "obs_value": "1/4"
  },
  {
    "smiles_representation": "COc1ccccc1NC(=O)N(C)C(=O)N(C)C",
    "measured_target": "ddy strain of male mice",
    "obs_value": "0/4"
  },
  {
    "smiles_representation": "CSc1ccc(NC(=O)N(C)C(=O)N(C)C)cc1",
    "measured_target": "ddy strain of male mice",
    "obs_value": "0/4"
  },
  {
    "smiles_representation": "CN(C)C(=O)N(C)C(=O)Nc1ccccc1C(F)(F)F",
    "measured_target": "ddy strain of male mice",
    "obs_value": "1/4"
  },
  {
    "smiles_representation": "CCCCN(C(=O)N(C)C(=O)NC)c1ccccc1",
    "measured_target": "ddy strain of male mice",
    "obs_value": "2/4"
  },
  {
    "smiles_representation": "CCCCN(C(=O)Nc1ccccc1)C(=O)N(C)C",
    "measured_target": "ddy strain of male mice",
    "obs_value": "0/4"
  },
  {
    "smiles_representation": "CCCN(C)C(=O)N(C)C(=O)Nc1ccccc1",
    "measured_target": "ddy strain of male mice",
    "obs_value": "1/4"
  },
  {
    "smiles_representation": "CCCN(C(=O)N(C)C(=O)NC)c1ccccc1",
    "measured_target": "ddy strain of male mice",
    "obs_value": "3/4"
  },
  {
    "smiles_representation": "CCCNC(=O)N(C)C(=O)N(C)c1ccccc1",
    "measured_target": "ddy strain of male mice",
    "obs_value": "1/4"
  },
  {
    "smiles_representation": "CN(C)C(=O)N(C)C(=O)Nc1cccc(C(F)(F)F)c1",
    "measured_target": "ddy strain of male mice",
    "obs_value": "0/4"
  },
  {
    "smiles_representation": "CN(C)C(=O)N(C(=O)Nc1ccccc1)c1ccccc1",
    "measured_target": "ddy strain of male mice",
    "obs_value": "0/4"
  },
  {
    "smiles_representation": "CCCNC(=O)NC(=O)N(C)c1ccccc1",
    "measured_target": "ddy strain of male mice",
    "obs_value": "2/4"
  },
  {
    "smiles_representation": "CN(C)C(=O)N(C)C(=O)Nc1ccc(Cl)cc1Cl",
    "measured_target": "ddy strain of male mice",
    "obs_value": "0/4"
  },
  {
    "smiles_representation": "Cc1cccc(NC(=O)N(C)C(=O)N(C)C)c1C",
    "measured_target": "ddy strain of male mice",
    "obs_value": "1/4"
  },
  {
    "smiles_representation": "CCCCN(C)C(=O)N(C)C(=O)Nc1ccccc1",
    "measured_target": "ddy strain of male mice",
    "obs_value": "0/4"
  },
  {
    "smiles_representation": "COc1cc(NC(=O)N(C)C(=O)N(C)C)cc(OC)c1OC",
    "measured_target": "ddy strain of male mice",
    "obs_value": "2/4"
  },
  {
    "smiles_representation": "CN(C)C(=O)N(C)C(=O)Nc1ccc(O)cc1",
    "measured_target": "ddy strain of male mice",
    "obs_value": "0/4"
  },
  {
    "smiles_representation": "CN(C)C(=O)N(C)C(=O)Nc1ccccc1F",
    "measured_target": "ddy strain of male mice",
    "obs_value": "1/4"
  },
  {
    "smiles_representation": "CC(=O)c1ccc(NC(=O)N(C)C(=O)N(C)C)cc1",
    "measured_target": "ddy strain of male mice",
    "obs_value": "4/4"
  },
  {
    "smiles_representation": "CCCCNC(=O)N(C(=O)N(C)C)c1ccccc1",
    "measured_target": "ddy strain of male mice",
    "obs_value": "0/4"
  },
  {
    "smiles_representation": "CCN(C(=O)N(C)C(=O)NC)c1ccc(Cl)cc1",
    "measured_target": "ddy strain of male mice",
    "obs_value": "1/4"
  },
  {
    "smiles_representation": "CN(C)C(=O)N(C)C(=O)Nc1c(F)c(F)cc(F)c1F",
    "measured_target": "ddy strain of male mice",
    "obs_value": "4/4"
  },
  {
    "smiles_representation": "CCCCNC(=O)NC(=O)N(C)c1ccccc1",
    "measured_target": "ddy strain of male mice",
    "obs_value": "0/4"
  },
  {
    "smiles_representation": "CN(C)C(=O)N(C)C(=O)Nc1ccc(Cl)c(Cl)c1",
    "measured_target": "ddy strain of male mice",
    "obs_value": "1/4"
  }
]
